tested on: BMPR1A; conditions: concentration: 1 μM, replicates: in singlicate; n = 1;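 also: KINOMEscan kinase panel screen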
test readout: %Inh (%)

O=C1NC(=O)C(N2CCc3ccccc32)=C1c1ccccc1Cl 0
Cc1ccc(-c2cc(-c3c[nH]nc3-c3ccccn3)ccn2)cc1 0
O=C(O)COc1ncnc2cc(-c3ccc4[nH]ncc4c3)sc12 19
CCn1c(-c2ccccn2)nc2cnccc21 0
CCn1c(-c2cccnc2O)nc2cnccc21 0

###

Recorded %Inh by entry
system: S6K1; settings: concentration: 1 μM, replicates: in singlicate; n = 1
test readout: %Inh (%)

compound	assay value
Cl.Oc1ccc(-c2nc(-c3ccccc3)[nH]c2-c2ccncc2)cc1 [SB-428218]	14
COc1ccc(Nc2nccc(-c3cccc(NC(=O)c4cc5cc(F)ccc5[nH]4)c3)n2)cc1 [GSK1229782]	16
CS(=O)(=O)c1ccc(-c2c(-c3ncn[nH]3)sc(N3CCOCC3)c2C#N)cc1	10
Clc1cc(Cl)cc(Nc2ccnc(Nc3cc(Cl)cc(Cl)c3)n2)c1 [GSK175726]	0
NC(=O)c1nnc2ccccc2c1N	14
O=C(Nc1n[nH]c2nc(-c3nccs3)c(Br)cc12)C1CC1 [SB-742251]	6
COc1ccc(C2=C(Nc3cccc(C(=O)O)c3)C(=O)NC2=O)cc1 [SB-390765]	15
Cn1ccc2ncnc(Oc3cccc(C(=O)Nc4ccccc4)c3)c21	0
COC(=O)c1c(-c2ccccc2)c2cc(OC)ccc2c(=O)n1Cc1ccccc1	8
